Recorded values, source PubChem BioAssay (EPA / NIEHS).

- procedure_text: APR_HepG2_MitoticArrest_1hr: Apredica 1-hour HepG2 Assay for Mitotic Arrest (AID 2282672)
- experimental_context: high-content imaging, actives raise or lower the signal
Activity calls are given as the source filed them. Rule for the calls: active = hit-call score of the fitted dose curve at least 0.9, where 1 is the maximum; inactive = score below 0.9.
reported_property: outcome

# compound, reading
data = [
    ("CCCN(CC)CC1COC2(CCC(C(C)(C)C)CC2)O1 (stereo not drawn)", "inactive"),
    ("CCOc1nc(F)cc2nc(S(=O)(=O)Nc3c(Cl)cccc3Cl)nn12", "inactive"),
    ("CSC(=O)c1c(C(F)F)nc(C(F)(F)F)c(C(=O)SC)c1CC(C)C", "inactive"),
    ("Cc1cc(C)nc(Nc2ccccc2)n1", "inactive"),
    ("CC(C)Oc1cccc(NC(=O)c2ccccc2C(F)(F)F)c1", "inactive"),
]

So for O=P(O)(O)CCCl , the logged outcome turned out to be inactive

In plain terms, CC1(C)C(C(=O)OC(C#N)c2cccc(Oc3ccccc3)c2)C1(C)C (stereo not drawn) has a documented outcome of inactive

Measured outcome, Clc1nc(Cl)nc(Nc2ccccc2Cl)n1 : inactive
